- procedure details: yeast display, Sf9 membrane polyspecificity reagent, FACS + sequencing; frameworks hold sequencing errors
measured parameter: polyreactivity (PSR sort gate)

QVQLVESGGGLVQAGGSLRLSCAASGGTFLRNAMGWYRQAPGKERELVAAISARGGSTRYADSVKGRFTISRDNAKNTVYLQMNSLKPEDTAVYYCDATSSHHRRMEYWGQGTQVTVSS    high polyreactivity
QVQLVESGGGLVQAGGSLRLSCAASGLTFTWYTMGWYRQAPGKERELVAAITSGGSTNYADSVKGSFTISRDNAKNTVYLQMNSLKPEDTAVYYCAASRTFYWWEYGYWGQGTQVTVSS    high polyreactivity
QVQLVESGGGLVQAGGSLRLSCAASGFTFSINTMGWYRQAPGKEREFVAGISRSGGSTYYADSVKGRFTISRDNAKNTVYLQMNSLKPEDTAVYYCLKYYQGYDYWGQGTQVTVSS    high polyreactivity

* * *

- procedure details: yeast display, Sf9 membrane polyspecificity reagent, FACS + sequencing; frameworks hold sequencing errors
measured parameter: polyreactivity (PSR sort gate)

QVQLVESGGGLVQAGGSLRLSCAASGSIFGFNAMGWYRPAPGKERELVAGITSGDRTNYADSVKGRFTISRDNAKNTVYLQMNSLKPEDTAVYYCAARKYVFFKMYYWGQGTQVTVSS    low polyreactivity
QVQLVESGGGLVQAGGSLRLSSAASGSIFASYAMGWYRQAPGKERELVAAISRRAVRTYYADSVKGRFTISRDNAKNTVYLQMNSLKPEDSAVYYCNAASSLPGYDYWGQGTQLTVSS    high polyreactivity
QVQLVESGGGLVQAGGSLRLICAASGYTFSYYAMGWYRQAPGKERELVAAINYSGGRTYYADSVKGRFTISRDNAKNTVYLQMNSLKPDDTAVYYCAAYTRNGDYDYWGQGTQVTVSS    high polyreactivity
QDQLVESGGGLVQARGSLRLSCASSGSTFDTNTMGWYRQAPGKERELVASNSRGTSTKYADSVKGRFTISRDNAKNTVYLQMNSLKPEDTAVYYCNAVSRDKSLYDYWGQGTQVTVSS    high polyreactivity
QVQLVESGGGLVQAGGSLRLSCAASGGIFNYYAMGWYRQAPGKERELVAAISASGGSTYYADSVKGRFTISRDNAKNTVYLQMNSLKQEDTAVYYCAAKYPQKTPVNSYGNSFYYWGQGTQVTVSS    low polyreactivity
QVHLGETGGALVQAGGRLRLSCAASGITLGAYAMGWYRQAPGKERELVARIRIGGSTYYADSVKGRFTISRDYAKNTVFLQMNSLKPEDTAVYYCNALYRYLYRSGDYWGQGTQVTVSS    low polyreactivity
QVQLVESGGGLVQAGGSLRLSCAASGRIFVWYDMGWYRQAPGKERELVAAISWGGGTNYADSVKGRFTISRDNAKNTVYLQMNSLKPEDTAVYYCAAAPSYYYFVRYVPSDIEGYWGQGTQVTVSS    low polyreactivity
QVQLVESGGGLVQAGGSLRLSCAASGIIFYFYAMGWYRQAPGKERELVAAITSGGSTNYADSVKGRFTISRDNAKNTVYLQMNSLKPEDTAVYYCAADRDYYFFRYDYWGQGTQVTVSS    low polyreactivity
QVQLVESGGGLVQAGGSLRLSCAASGSIFGANAMGWYRQAPAKEWELVAAITRGGRTNYADSVKGRFTISRDNAKISVYLQMNSLKPEDTAVYYCNAAWGTGRWAGYISGGDWGQGTHVTVSS    high polyreactivity
QVQLVESGGGLVQAGGSLRLSCAASGLIFAGNDMGWYRQAPGKERELVARITNGGGSTYYADSVKGRFTISRDNAKNTVYLQMNSLKPEDTAVYYCNAGRSSGYSYDSWGPGTQVTVSS    low polyreactivity
QVQLVESGGGLVQAGGSLRLSCAASGGTFYANAMGWSRQAPGKEREFVASISRSVGSTYYADSVKGRFTISRDNAKNTVYLQMNSLKPEDTAVYYCAARRYSRPRYTYYSWGQGTQVTVSS    high polyreactivity
QVQLVESGGGLVQAGGSLRLSCAASGRTFGYYAMGWYRQAPGKERELVAPISWSGANTYYADSVKGRFTISRDNAKNTVYLQMNSLKPEDTAVYYCAAVRYYSYAYSIRYGYWGQGTQVTVSS    high polyreactivity
QVQLVESGGGLVQAGGSLRLSCAASGLTISYYAMGWYRQAPGKERELVAAISTDSSTNYADSVKGRFTISRDNAKNTVYLQMISLKPEDTAVYYCAAVVVYGPIHGYWGQGTQVTVSS    low polyreactivity
QVQLVESGGGLVQAGGSLRLSCAASVRTFNFYASGLYRQATRKQRELVAAIRRGGSTNYADSVKGRFTISRDNAKNTVYLQMNSLIREDTAVYYCNKRVWYPYWTVDYWGQGTQVTVSS    low polyreactivity
QVQLVESGGGLVQAGGSLRLSCAASGITFVDYDMGWYRQAPGKERELVAAITTGSSTYYADSVKGRFTISRDNAKNTVYLQMNSLKPEDTAVYYCARVFEYDYYQQWSYGYWGQGTQVTVSS    low polyreactivity
QVQLVESGGGLVQAGGSLRLSCAASGRIFPGYAMGWYRQAPGKERELVAAISGSGVRTYYADSVKGRFTISRDNAKNTFYLQMNSLKPEDTAVYYCAADSKIRTKLDYWGQGTQVTVSS    low polyreactivity
QVQLVESGGGLVQAGGSLRFSCAASGFIFRDNAMVWYRRAPGKERELVAAISYSGGSTYYADSVKGRFTISRDNAKNTVYLQMNSVKPEDTAVYYCAASYGPKRRGYWGQGTQVTVSS    high polyreactivity
QVQLVESGGGLVQAVGSLRLSCAASGFIFAQNARGGSRPAPGKERELVAAIYGSGVRTYYADSVKGRFTISRDNAKNTVYLQMNSLKPEDTAVYYCAKDTYLQIYQYGYWGQGTQVTVSS    high polyreactivity
QVQLVESGGGLVQAGGSLRLSCAASGSTFKYYPMGWYRQAPGKERELVAAITSTGSTNYADSVKGRFTISRDNAKNTVYLQMNSRKPEDTAVYYCAKKYFYSTYYSWGHGTQVTVSS    low polyreactivity
QVQLVESGGGLVQAGGSLRLSCAASGYIFVSYDMGWYRQAPGKERELVAAISWRGGSTYYADSVKGRFTISRDNAMNTVYLQMNSLKPEDTAVYYCAVDDWLDWLFADFGYWGQGTQVTVSS    low polyreactivity
QVQLVESGGGLVQAGGSLRLSCAASGSISYQNAMGWYRQAPGKERELVAAISGDGDSTYYADSVKGRFTISRDNAKNTVYLQMNSLKPEDTAVYYCAAEPNVYFSVFVLFPYDYWGQGTQVTVSS    low polyreactivity
